- Assay Name: Ex vivo biodistribution in mice with MM1S tumor xenografts
- Particulars: both sexes, NSG, mouse, kidney, 80 µCi, 30 min p.i.; MM1S xenograft mice; read-out: uptake in kidney
Measured Quantity: tissue uptake at 0.5 h (%ID/g)
Numeric only. Scale: %ID/g

Can you share its tissue uptake at 0.5 h? I mean this compound: CC[C@H](C)[C@@H]1NC(=O)[C@@H]2CCCN2C(=O)[C@H](Cc2ccccc2)NC(=O)[C@H](CC(=O)O)NC(=O)[C@H](C)NC(=O)[C@@H]2CSCc3cc(cc(c3)CSC[C@H](NC(=O)[C@H](C)NC(=O)CCOCCOCCOCCNC(=O)CN3CCN(CC(=O)O)CCN(CC(=O)O)CC3)C(=O)N[C@@H](C(C)C)C(=O)N3CCC[C@H]3C(=O)N2)CSC[C@@H](C(N)=O)NC(=O)[C@H](Cc2ccc(O)cc2)NC(=O)[C@H](Cc2c[nH]c3ccccc23)NC1=O [[^68Ga]Ga‐AJ206, metal not drawn]
21.6

---

- Assay Name: Ex vivo biodistribution in mice with RPMI tumor xenografts
- Particulars: both sexes, NSG, mouse, liver, 50 µCi, 60 min p.i.; RPMI xenograft mice; read-out: uptake in liver
Measured Quantity: tissue uptake at 1 h (%ID/g)
Numeric only. Scale: %ID/g

Can you share its tissue uptake at 1 h? I mean this compound: CC[C@H](C)[C@@H]1NC(=O)[C@@H]2CCCN2C(=O)[C@H](Cc2ccccc2)NC(=O)[C@H](CC(=O)O)NC(=O)[C@H](C)NC(=O)[C@@H]2CSCc3cc(cc(c3)CSC[C@H](NC(=O)[C@H](C)NC(=O)CCOCCOCCOCCNC(=O)CN3CCN(CC(=O)O)CCN(CC(=O)O)CC3)C(=O)N[C@@H](C(C)C)C(=O)N3CCC[C@H]3C(=O)N2)CSC[C@@H](C(N)=O)NC(=O)[C@H](Cc2ccc(O)cc2)NC(=O)[C@H](Cc2c[nH]c3ccccc23)NC1=O [[^68Ga]Ga‐AJ206, metal not drawn]
1.27

---

- Assay Name: Ex vivo biodistribution in mice with MM1S tumor xenografts
- Particulars: both sexes, NSG, mouse, liver, 80 µCi, total radioactivity, 120 min p.i.; MM1S xenograft mice; read-out: uptake in liver
- Procedure: […] Mice with 100–200 mm^3 tumor volume were used for ex vivo biodistribution studies. For radiotracer pharmacokinetics studies, mice with MOLP8 tumor xenografts received ≈80 µCi (2.96 MBq) [^68Ga]Ga‐AJ206 and were sacrificed at pre‐determined time points (5, 30, 60 and 120 min). Similarly, for dosimetry study, mice with MM1S tumor xenografts received ≈80 µCi (2.96 MBq) of [^68Ga]Ga‐AJ206 and were sacrificed at pre‐determined time points (5, 30, 60, 90 and 120 min). […]
Measured Quantity: tissue uptake at 2 h
# do not omit the unit; it follows the number

Can you share its tissue uptake at 2 h? I mean this molecule: CC[C@H](C)[C@@H]1NC(=O)[C@@H]2CCCN2C(=O)[C@H](Cc2ccccc2)NC(=O)[C@H](CC(=O)O)NC(=O)[C@H](C)NC(=O)[C@@H]2CSCc3cc(cc(c3)CSC[C@H](NC(=O)[C@H](C)NC(=O)CCOCCOCCOCCNC(=O)CN3CCN(CC(=O)O)CCN(CC(=O)O)CC3)C(=O)N[C@@H](C(C)C)C(=O)N3CCC[C@H]3C(=O)N2)CSC[C@@H](C(N)=O)NC(=O)[C@H](Cc2ccc(O)cc2)NC(=O)[C@H](Cc2c[nH]c3ccccc23)NC1=O [[^68Ga]Ga‐AJ206, metal not drawn]
0.73 %ID/g
